biological target: SV2A (Homo sapiens); experiment: 3H-UCB-J binding with or without UCB1244283; conditions: Kd of 3H-UCB-J binding to SV2A, in the presence of saturating UCB1244283
Sequence (Q7L0J3 65-742 limits assumed): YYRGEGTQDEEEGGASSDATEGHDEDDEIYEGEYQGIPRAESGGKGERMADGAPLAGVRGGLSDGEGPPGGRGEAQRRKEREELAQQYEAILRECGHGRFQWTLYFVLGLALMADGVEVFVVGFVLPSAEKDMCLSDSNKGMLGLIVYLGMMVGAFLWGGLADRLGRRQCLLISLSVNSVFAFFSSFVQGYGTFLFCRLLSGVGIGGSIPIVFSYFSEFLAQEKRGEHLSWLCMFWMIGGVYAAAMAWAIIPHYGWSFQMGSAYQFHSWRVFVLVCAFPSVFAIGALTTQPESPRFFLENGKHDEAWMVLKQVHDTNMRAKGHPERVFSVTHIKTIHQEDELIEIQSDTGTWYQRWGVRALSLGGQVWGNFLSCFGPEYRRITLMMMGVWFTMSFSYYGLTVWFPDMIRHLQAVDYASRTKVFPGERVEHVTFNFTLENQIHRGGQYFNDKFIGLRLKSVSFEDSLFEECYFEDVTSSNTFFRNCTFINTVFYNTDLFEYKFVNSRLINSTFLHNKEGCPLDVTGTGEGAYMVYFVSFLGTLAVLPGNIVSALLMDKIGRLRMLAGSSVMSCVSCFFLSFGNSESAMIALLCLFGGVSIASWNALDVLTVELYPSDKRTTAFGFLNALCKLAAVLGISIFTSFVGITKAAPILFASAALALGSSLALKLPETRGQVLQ
reportedEndpoint: pKd
Reminder that pKd means the negative base-10 logarithm of the concentration expressed in mol/L.

query: Find pKd (SV2A (Homo sapiens)) for the entry Cc1cnccc1CN1C[C@@H](c2cc(F)c(F)c(F)c2)CC1=O
result: 8.22

* * *

target: SV2A-G659C (Homo sapiens, UniProt Q7L0J3, G659C); assay: 3H-LEV filter binding, concentration-response of UCB1244283
Sequence (Q7L0J3 65-742 G659C limits assumed): as the sequence (Q7L0J3 65-742 limits assumed) above, with G595C counted along it
reportedEndpoint: pEC50
Keep in mind that pEC50 stands for -log10 of concentration in molar terms.

query: # input compound: COc1ccccc1NC(=O)CC(C)Cc1cc(C)cc(C)c1 (stereo not shown) [UCB1244283] ; wanted: its pEC50
result: 6.00
